System: human osteosarcoma U2OS cells
measurement kind: IC50 (µM)
Output spec: scalar in µM, unitless text.

Ask | Requested read-out: IC50. Entry: RRRRRRRR [Compound D8]
Reply | 43
